Assay: in vitro
Settings: human, microsomes
Starred links: 1 amine or outer side, 2 acyl side, 3 side chain; linkers in the order of their positions; H or OH if unused. Non-standard residues stand in square brackets, D forms with d. Residues, ends and D or L forms follow the SMILES beside them. X4 = CC(C)C[C@H](N[*:1])C(=S)N1CCC[C@@H]1C(=O)[*:2]; NMeY = CN[C@@H](Cc1ccc(O)cc1)C(=O)O
metric: microsomal CLint

CC(C)C[C@@H]1NC(=O)[C@@H](CC(C)C)NC(=O)[C@H](CC(C)C)NC(=O)[C@H](Cc2ccc(O)cc2)N(C)C(=O)[C@H]2CCCN2C(=O)[C@H](CC(C)C)NC1=O [10j] (cyclo(LL[dP][NMeY]L[dL])); 49 µL/min/mg

Now look at this one.
Given the compound CC(C)C[C@@H]1NC(=O)[C@H](Cc2ccc(O)cc2)NC(=O)[C@H]2CCCN2C(=S)[C@H](CC(C)C)NC(=O)[C@H](CC(C)C)NC(=O)[C@@H](CC(C)C)NC1=O [10c] (cyclo(L[dL]L[X4]Y)) , what is its reported microsomal CLint?
106 µL/min/mg
